The measurements presented in this section are drawn from the nanobody polyreactivity screen of Harvey et al. (2022).

Experiment: yeast display, Sf9 membrane polyspecificity reagent, FACS + sequencing; frameworks hold sequencing errors
endpoint_label: polyreactivity (PSR sort gate)

Examples with their reported polyreactivity (PSR sort gate) follow.
>>> result("QVQLVESGGGLVQAGGSLRLSCAASGSIFPRYAMGWYRQAPGKERELVAAITGSGSSTYYADSVKGRFTISRDNAKNTVYLQMNSLKPEDTAVYYCAALYGPGREYDYWGQGTQVTVSS")
"low polyreactivity"
>>> result("QVQLVESGGGLVQAGGSLRLSCAASGRIFRYYAMGWSRQAPGKERELVADISRRGGSTYYADSVKGRFTISRDNAKNTVYLQMNSLKPEDTAVYYCNARWYRTGSTYHEDYWGQGTQVTLSS")
"high polyreactivity"
>>> result("QVQLVESGGGLVQAGGRLRLSFAASGSIFVFYVMGWYRQAHGKERELVAAISNSGSSTYYADSVKGRFTISRDNAKNTVYLQINSLKPEDTAVYYCAAEYKIPVGFDYWGQGTQVTVSS")
"low polyreactivity"
>>> result("QVQLVESGGGLVQAGGSLRLSCAASGRIFTRYAMGWYRQAPGKERELVATITKSGGSTYYADSVKGRFTISRDNAKNTVYLQMNSLKPEDTAVYYFAADSWWTYQYDYWGQGTQVTVSS")
"low polyreactivity"
>>> result("QVQLVESVGGLVQAGGSLRLSCAPSGRIFGKYAMGWYRQAPGKERELVADITWGGGSTNYADSVKGRFTISRDNAKNTVYLQMNSLNPDDTAVYYCATGFYYYLTKTIPYEYEYWGQGTQVTVSS")
"low polyreactivity"

Please give polyreactivity (PSR sort gate) for each item listed below.
1. QVQIVESGGGLVQAGGSLRLSCAASGRIFHWYTMGWYRQAPGKERELVAAISGSGGSTHYADSVKGRFTISRDNAKNTVYLQMNSLKPEDTAVYYCAADDGFYGQDLDYWGQGTQVTVSS
2. QVQLVESGGGLVQAGGSLRLSCAASGFTFIRYAMGWDRQAPGKERELVAAISVSGGRTYYADSVKGRFTISRDNAKNTVYLQMNSLKPEDTAVYYCARRPSYYQGDYWGQGTQVTVSS
3. QVQLVESGGGLVQAGGSLRLSCAASGRIFGPDAMRWYRQAPRKERELVAAITWRGDRTYYADSVKGRFTISRDIAKNSVYLQINSLKPEDTAVYYCAARGGRSEYDYWGQATQVTVSS
4. QVQLVDSGGGLVQAGGSLRLSCAASGFTFFRYAMGWYRQAPGKERELVAAITSGGGRTYYADSVKGRFTISRDNAKNTVYLQMNSLNPEDTAVYYCAARVYFSFITPIKYNYWGQGTQVTVSS

Reply:
1. low polyreactivity
2. high polyreactivity
3. low polyreactivity
4. high polyreactivity

Query: Sample QVQLVESGGGLVQAGGSLRLSCAASGRTFGPYTMGWYRQAPGKEREFVAAINSSGSRTYYADSVKGRFTISRDNAKNTVYLKINSLKPEDTGVYYCAAEAKWYYSWSYPYEGDYWGQGTQVTVSS — what was its polyreactivity (PSR sort gate)?
Reply: low polyreactivity

* * *

Test: yeast display, Sf9 membrane polyspecificity reagent, FACS + sequencing; frameworks hold sequencing errors
endpoint_label: polyreactivity (PSR sort gate)

Use these answered entries as a reference point.
>>> result("QVQLVESGGGLVQAGGSLRLSCAASGSIFPGYAMGWYRQAPGKERELVAAIDRSGGSTYYADSVKGRFTISRDNAKNTVYLQMNSLKPEDTAVYYCNRVFTWRYGYRYEYWGQGTQVTVSS")
"high polyreactivity"
>>> result("QVQLVESGGGLVQAGGSLRLSCAASGSTFYRYAMGWYRQAPGKERELVAAISRGGGRTNYADSVKGRFTISRDNAKNTVYLQMNSLKPEDTAVYYCAADDTYTRYDYWGQGTQVTVSS")
"high polyreactivity"
>>> result("QVQLVESGGGLVQAGGSLRLSCAASGSIFQYNAMGGSRQSPGEDRELVAAISRSGGSTYYADSVKGRFTNSRDNAKNTVYLQMNSLKPEDTAVYYCNAVLGYYSPYDYWVQGTQVTVSS")
"low polyreactivity"
>>> result("QVQLVESGGGLVQAGGSLRLSCAASGSIFFWYAMGWYRQAPGKVRELVAAISYSGSRTYYSDSVKGRFTISRDNAKNTVYLQMNSLKPEDTAVDYFNVSLYSGAEYDYWGQGTQVTVSS")
"high polyreactivity"
>>> result("QVQLVESGGGLVQAGGSLRLSCAASGFIFSWNDLGWYRQATGKERELVAAITSGTGSTYYADSVKGRFTISRDNAKNTVYLQMNSLKPEDTAVYYCAAGTNYGKLRIRFDYWGQGTQVTVSS")
"low polyreactivity"
>>> result("QVQLVESWGGLVQAGGSLRISCAASGFIIDGNAMGWYRQAPGKERELLAAISGDGGSYYADSVKGRFTISRDNAKNSVYLQRNSLKPEDTAVYDCAAEQTQLYSFGWDEYWGQGTQVTVSS")
"low polyreactivity"

The following sequences each have a reported value; give each one's polyreactivity (PSR sort gate).
1. QVQLVESGGGLVQAGGSLRLSCAASGFTFANNAMGWYRQAPGKERELVAAISRSGGSTYYADSVKGRFTISRDNAKNTVYLQMNSLKPEDTAVYYCAKAVFYGPCERNYGLDYWGQGTQVTVSS
2. QVQLVESGGGLVQAGGSLRLICAASGGTFYAYAMGWYRQAPGKERELVAAITRSGGRTYYADSVKGRFTISRDNAKNTVSLQMNSLKPEDTAVYYCAADPHHYSGLDYWGQGTQVTVSS

Reply:
1. high polyreactivity
2. low polyreactivity

* * *

Assay: yeast display, Sf9 membrane polyspecificity reagent, FACS + sequencing; frameworks hold sequencing errors
endpoint_label: polyreactivity (PSR sort gate)

Here is how some sequences turned out for polyreactivity (PSR sort gate).
>>> result("QVQLVESGGGLVQAGGSLRLSCAASGSIFGRNAMGWYRQAPGKERELVAGMFYADSEKGRFTISRDNAKNTVYLQMNSLKPEDTAVYYCNADGTTDISNDNWYGYWGQGTQVTVSS")
"low polyreactivity"
>>> result("QVQLVESGGGLVQAGGSLRLSCAASGLTFVPNAMGWYRQAPGKERELVAAISNNGGRTYYADSVKGRFTISRDNAKNNVYLQMNSLKPEDTAVYYCAKYLSPGERHSYDYWGQGTQVTLSS")
"high polyreactivity"
>>> result("QVQLGETGGGLVQAGGSLRLSCAASGFNFGYYVMGWYRQAPGKERELVAAITSGGSKYYADSVKGRFTISRDNAKNTVYLQMNSLKPEDTAVYYCNKYGVVLPGFDEWGQGTQVTVSS")
"high polyreactivity"
>>> result("QVQLVESGGGLVQAGGSLRLSCAASGFTFYAYAMGWYRQAPGKERELVAVISWSGGSTYYADSVKGRFTISRDNAKNTVYLQMNSLKPEDTAVYYCAADSLESYPDYEYDYWGQGTQVTVSS")
"low polyreactivity"
>>> result("QVQLVESGGGLVQAGGSLRLSCAASGRIFHLYAMGWYRQAPGKERELVATINYEGGSTYYADSVKGRFTISRDNAKDTVYLQMNSLKPEDTAVYYCAADGYQDKYYWLETWVGYWGQGTQVTVSS")
"low polyreactivity"
>>> result("QVQLVESGGGLVQAGGSLRLSCAASGRIFTINAMGWYRQAPGKERELVASIRSTGGSTYYADSVKGRFTISRDNAKNTVYLQMNSLKPEDTAVYYCAADGGVAWGYGYWGQGTQVTVSS")
"low polyreactivity"
>>> result("QVQLVESGGGLVQAGGSLRLSCAASGSIFRWNAMGWSRQAPGKERELVAAITWDGGRTYYADSVKGRFTISRDNAKNTVYLQMNSLKPEDTAVYYCNADNARGRSGVRRYYWGQGTQVTVSS")
"high polyreactivity"
>>> result("QVQLVESGGGLVQAGGSLRLSCAASGSTFYTYAMGWYRQAPGKERELVAAITSGGSTYYADSVKGRFTISRDNAKNTVYLQMNSLKPEDTAVYYCAARPYPHSAYEGDYWGRGTQVTVSS")
"low polyreactivity"
>>> result("QVQLVESGGGLVQAGGSLRLSCAASGITFDRNVMGWYRQAPGTERELVAAISKSGGRTYYADSVKGRFRISRDNAKNTDYLQLNSLKPEDTAVYYCNADVYSRKSLHQYEYWGQGTQVTVSS")
"high polyreactivity"
>>> result("QVQLVESGGGLVQAGGSLRLSCAASGIIFGDNAMGWYRQAPGKERELVAAISSSGTSTNYADSVKGRFTISRDNAKNTVYLQMNSLKPEDSAVYYCAKDVLPPYPQSPSGGDYWGQGTQVTVSS")
"low polyreactivity"

For each of the sequences below, note its polyreactivity (PSR sort gate).
1. QVQLVESGGGLVQAGVSLRLSCAASGSLFSANAMGWYRQAPGKERELVASITGDGSTNYADSVKGRFTISRDNAMNTVYLQMNSLKPEDTAVYYCAADIGSWYDYWGQGTQVTVSS
2. QVQLVESGGGLVQAGGSLRLSCAASGITFYRYAMGWYRQAPGKEREFVAAITWGSTYYADSVKGRFTISRDNAKNTVYLQMNSLKPEDTAVYYCNKKGYTVGATVGYWGQGTQVTVSS
3. QVQLVESGGGLVQAGGSLRLSCAASGRIFEINAMGWYRQAPGKERELVAAITRSGGSTYYADSVKGRFTISRDNAKNTVYLQMNSLKPEDTAVYYCAARGRYWYSRYYSWGQGTQVTVSS
4. QVQLVESGGGLVQAGGSLRLSCAASGFIFRGNAMGWYRQAPGKERELVAAISWSGGNTYYADSVKGRFTISRDNAKNTVYLQMNSLKPEDTAVYYCAAGATWSRQGSIRYNYWGQGTQVTVSS

Reply:
1: low polyreactivity; 2: low polyreactivity; 3: high polyreactivity; 4: high polyreactivity
